- Test system: V79MZh
- experiment description: Selectivity factor, ratio of IC50 for human CYP11B1 to IC50 for human CYP11B2 expressed in V79MZh cells
- Type: cell-based
endpoint: Ratio IC50
Keep it simple and answer with nothing but the number.

Worked examples, 6 molecules total:
>>> reported("O=C1CCc2cc(-c3cccnc3)cc(Br)c2N1")
120
>>> reported("COc1cc2c(cc1-c1cccnc1)CCC(=O)N2C")
59
>>> reported("O=C1CCc2cc(-c3cccnc3)c(O)cc2N1")
38
>>> reported("O=C1CCc2cc(-c3cccnc3)cc(-c3cccnc3)c2N1")
3.7
>>> reported("O=C1CCc2cc(-c3cccnc3)cc(-c3ccsc3)c2N1")
22
>>> reported("O=C1CCc2cc(-c3cccnc3)c(OCc3ccccc3)cc2N1")
2

Now for another entry.
# query: Ratio IC50 | item `CN1C(=O)CCc2cc(-c3cccnc3)c(OCc3ccccc3)cc21` | system: V79MZh
0.8

All figures here come from ChEMBL document CHEMBL2163209.
